# System: R275C/Slo1WT/beta2
# test: modulators of BK channel variants, profiling panel, selectivity assay, cell-based, U2OS BacMam, thallium flux, beta subunits (AID 1259406);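 further: initial slope of Thallos dye fluorescence rise after thallium is added; log ratio against the mean of 0.3% DMSO vehicle wells on the same plate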
# recorded conditions: at 30 µM
Activity calls are given as the source filed them.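 How the source made its calls: active means thallium flux through the channel raised or lowered by more than 3 SD from vehicle-only wells, actives on both sides; inactive means the rest.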
Respond only with the outcome that fits, drawn from 1 = active, 0 = inactive

# outcome recorded in this test, key = Cc1nn(-c2ccccc2)nc1CNC(=O)COc1ccccc1
0

# repeat for CC1CC2C3CCC4=CC(=O)C=CC4(C)C3(F)C(O)CC2(C)C1(O)C(=O)CO (stereo unspecified)
0

# repeat for CCN(CC)C(=O)[C@]1(c2ccccc2)C[C@@H]1CN
0

# repeat for NC(CS(=O)(=O)Cc1ccco1)=NO
0

# repeat for Cc1cc(C(=O)N2CCN(c3ncccc3C#N)CC2)no1
0

# repeat for Cc1ccc(S(C)(=O)=NC(=O)c2ccc(-c3cc(C(F)(F)F)nn3C)s2)cc1 (stereo unspecified)
0

# repeat for CC(C)OC(=O)CCC/C=C\C[C@@H]1[C@@H](CC[C@@H](O)CCc2ccccc2)[C@H](O)C[C@@H]1O
1

# repeat for COc1cccc(N2CC(=O)N(NC(=O)NC3CCCCC3)CC2=O)c1
0

# repeat for CCOC(=O)c1ccc(-n2sccc2=O)cc1
0

# repeat for NC(=NNC(=O)c1cccnc1)c1ccncc1
0

# repeat for Cc1ccc(S(N)(=O)=O)c(I)c1
0
